Source: PubChem BioAssay AID2060508

Tested on: 454973-116-R2-J3-PDC spheroids, viability, % test/control;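 also: spheroids exposed to compounds for seven days; 100% = DMSO vehicle control viability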
Assay: Anticancer human tumor 454973-116-R2-J3-PDC patient-derived pancreatic carcinoma cell line growth inhibition [GQUAD]
Stated Conditions: second compound 0.0316 µM; first compound 1 µM; active compounds read low; spheroids with HUVEC and MSC
Some compounds, each annotated with its measured viability, T/C.
Entry rule: numbers only, all in %.

Some solved entries appear below for comparison.
Compound	viability, T/C [%]
CC1COCCN1c1cc(-c2ccnn2C)c2ccnc(-c3ccn[nH]3)c2n1 (stereo not given) + Cc1[nH]c2ccc(F)cc2c1-c1nc2c3cccnc3c3ncccc3c2[nH]1	23.2
COc1cccc2c1C(=O)c1c(O)c3c(c(O)c1C2=O)CC(O)(C(=O)CO)CC3OC1CC(N)C(O)C(C)O1 (stereo not given) + CN(C)c1ccc(Nc2c3ccc(NC(=O)CCN4CCCC4)cc3nc3cc(NC(=O)CCN4CCCC4)ccc23)cc1	33.2
CCCS(=O)(=O)Nc1ccc(F)c(C(=O)c2c[nH]c3ncc(-c4ccc(Cl)cc4)cc23)c1F + CN(C)c1ccc(Nc2c3ccc(NC(=O)CCN4CCCC4)cc3nc3cc(NC(=O)CCN4CCCC4)ccc23)cc1	110
COc1ncnc(C2CC2)c1-c1ncc2cnn(Cc3ccc(-c4nc(C(F)(F)F)cn4C(C)C)cc3)c2n1 + Cc1[nH]c2ccc(F)cc2c1-c1nc2c3cccnc3c3ncccc3c2[nH]1	110

Attention now shifts to the item below.
Endpoint output: viability, T/C of C=CC(=O)N1CCN(c2nc(=O)n(-c3c(C)ccnc3C(C)C)c3nc(-c4c(O)cccc4F)c(F)cc23)C(C)C1 (stereo not given) + Cc1[nH]c2ccc(F)cc2c1-c1nc2c3cccnc3c3ncccc3c2[nH]1 . Value? 109
